tested on: behavior suppressed by punishment (Rat Conflict); experiment: Suppression of Anxiety in the Adult Male Rat (conflict test); format: in vivo; details: ip, minimum effective dose, p<0.05 1-tailed vs vehicle, 3-min test session, read-out: Rat Conflict MED
Assay metric: minimal effective dose

// known answers, use as guide
## Task Provide the reported minimal effective dose (system: behavior suppressed by punishment (Rat Conflict)) for O=C1CCN2C(=C1C(=O)Nc1ccccc1F)N(Cc1cccnc1)c1cc(F)ccc12 [CP# 17]
## Result > 10 mg/kg

## Task Provide the reported minimal effective dose (system: behavior suppressed by punishment (Rat Conflict)) for O=C1CCN2C(=C1C(=O)Nc1ccccc1F)N(CCc1ccccn1)c1cc(F)ccc12 [CP# 15]
## Result 10 mg/kg

Below are 4 compounds. Give each one its minimal effective dose.
1. O=C1CCN2C(=C1C(=O)Nc1ccccc1F)N(Cc1cccs1)c1cc(F)ccc12 [CP# 21]
2. O=C1CCN2C(=C1C(=O)Nc1ccccc1F)N(Cc1ccccn1)c1cc(F)ccc12 [CP# 22]
3. O=C1CCN2C(=C1C(=O)Nc1ccccc1F)N(Cc1cc[n+]([O-])cc1)c1cc(F)ccc12 [CP# 14]
4. O=C1CCN2C(=C1C(=O)Nc1c(F)cccc1F)N(CCc1ccsc1)c1cc(F)ccc12 [CP# 25]

## Result
1. < 10 mg/kg
2. < 10 mg/kg
3. > 10 mg/kg
4. < 10 mg/kg

Below are 5 compounds. Give each one its minimal effective dose.
1. O=C1CCN2C(=C1C(=O)Nc1ccccc1F)N(CCc1ccsc1)c1cc(F)ccc12 [CP# 20]
2. O=C1CCN2C(=C1C(=O)Nc1ccccc1F)N(Cc1ccco1)c1cc(F)ccc12 [CP# 11]
3. O=C1CCN2C(=C1C(=O)Nc1ccccc1F)N(Cc1ccsc1)c1cc(F)ccc12 [CP# 19]
4. O=C1CCN2C(=C1C(=O)Nc1c(F)cccc1F)N(Cc1cccs1)c1cc(F)ccc12 [CP# 26]
5. O=C1CCN2C(=C1C(=O)Nc1ccccc1F)N(Cc1ccc[n+]([O-])c1)c1cc(F)ccc12 [CP# 13]

## Result
1. < 10 mg/kg
2. > 10 mg/kg
3. < 10 mg/kg
4. > 10 mg/kg
5. > 10 mg/kg

Below are 5 compounds. Give each one its minimal effective dose.
1. O=C1CCN2C(=C1C(=O)Nc1ccccc1F)N(Cc1cccnc1)c1ccccc12 [CP# 30]
2. O=C1CCN2C(=C1C(=O)Nc1c(F)cccc1F)N(CCc1cccs1)c1cc(F)ccc12 [CP# 18]
3. O=C1CCN2C(=C1C(=O)Nc1ccccc1F)N(Cc1c[nH]cn1)c1cc(F)ccc12 [CP# 12]
4. O=C1CCN2C(=C1C(=O)Nc1ccccc1F)N(Cc1ccncc1)c1cc(F)ccc12 [CP# 16]
5. O=C1CCN2C(=C1C(=O)Nc1c(F)cccc1F)N(Cc1ccccn1)c1ccccc12 [CP# 29]

## Result
1. 10 mg/kg
2. > 10 mg/kg
3. > 10 mg/kg
4. > 10 mg/kg
5. > 10 mg/kg

Where do these numbers come from? They come from patent US5922731A.
